// data source = patent US20230014722A1

- assay target: T1, human PD-1 on transfected cells (human, UniProt Q15116 25-288)
- T1 construct: also called CHO-S cells expressing human PD-1; human PD-1 transfected CHO-S cells
- T1 sequence (Q15116 25-288 limits assumed): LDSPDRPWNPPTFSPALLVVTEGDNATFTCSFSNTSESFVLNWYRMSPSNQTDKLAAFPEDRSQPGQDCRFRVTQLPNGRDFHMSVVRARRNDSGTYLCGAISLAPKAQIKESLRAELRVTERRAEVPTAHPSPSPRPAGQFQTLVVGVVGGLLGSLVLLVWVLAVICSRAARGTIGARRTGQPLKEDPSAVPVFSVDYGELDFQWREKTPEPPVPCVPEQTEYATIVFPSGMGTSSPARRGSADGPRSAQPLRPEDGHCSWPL
- experiment description: FACS competition on CHO-S cells expressing human PD-1 against biotinylated Keytruda at 1 µg/ml
readout kind: pIC50
Schema: pIC50 number; meaning minus log10 of the concentration expressed in molar units.

q: # query: pIC50 of entry 2C2 (antibody, human IgG4, V domains shown) VH: QVQLVQSGAEVKKPGSSVKVSCKASGFTFTTYYISWVRQAPGQGLEYLGYINMGSGGTNYNEKFKGRVTITADKSTSTAYMELSSLRSEDTAVYYCAIIGYFDYWGQGTMVTVSS VL: DVVMTQSPLSLPVTLGQPASISCRSSQSLLDSDGATYLYWFQQRPGQSPRRLIYLVSTLGSGVPDRFSGSGSGTDFTLKISRVEAEDVGVYYCMQLTHWPYTFGQGTKLEIK
a: 7.95
